Value source: paper PMC10468695

test.system: NAD(P)H:flavin reductase (Fre) (Salmonella enterica)
Sequence (Q9L6L9 2-233): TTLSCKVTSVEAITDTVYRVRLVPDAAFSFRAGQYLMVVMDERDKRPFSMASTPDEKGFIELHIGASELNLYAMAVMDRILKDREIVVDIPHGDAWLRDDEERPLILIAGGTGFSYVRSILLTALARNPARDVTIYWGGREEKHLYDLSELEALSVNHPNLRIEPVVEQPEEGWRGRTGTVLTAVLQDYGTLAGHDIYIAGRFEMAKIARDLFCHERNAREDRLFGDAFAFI
measure: Ki (µM)
Answers are plain numbers, in µM.

Ki reading for Cc1cc2nc[nH]c2cc1C [DMB, 5,6-dimethylbenzimidazole] : 1900
